Assay: qHTS profiling for inhibitors of Plasmodium falciparum proliferation (AID 504749);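 further: 0% = DMSO vehicle and full inhibition = artemisinin control; nearly all actives have a fitted effect of over 60% in size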
Settings: P. falciparum in erythrocytes, SYBR Green DNA, 72 h; at 28.7 µM (top of the series); parasite line A
Inconclusive results are not listed.
activity, negative = inhibition values by entry
Report the figure in % without appending any unit label.

Consider the following illustrative entries.
* CCOC(=O)[C@H](CCc1ccccc1)N[C@@H](C)C(=O)N1CCC[C@H]1C(=O)O | 7.69
* CCCNC(C)(C)COC(=O)c1ccccc1 | -2.07
* Cn1c(=O)c2c(ncn2CCO)n(C)c1=O | 2.6
* Cc1cc(=O)[nH]c(=S)[nH]1 | 10.7
* NC(=O)CC[C@@H](N)C(=O)O | 3.38
* O[C@@H]1CO[C@H]2[C@@H]1OC[C@@H]2O | 8.49
* CC(=O)N[C@@H](Cc1ccc(O)cc1)C(=O)O | 9.07
* NC(=O)CCCCC1CCSS1 (stereo not drawn) | -3.84

What value of activity, negative = inhibition has been recorded for this entry: "O=C1c2ccccc2S(=O)(=O)N1CCCCN1CCN(c2ncccn2)CC1"
-16.2

Input "CNCc1ccccc1"
11.1

----------
Test system: 7G8
Experiment: qHTS profiling for inhibitors of Plasmodium falciparum proliferation (AID 504749);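 further: 0% = DMSO vehicle and full inhibition = artemisinin control; nearly all actives have a fitted effect of over 60% in size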
Settings: P. falciparum in erythrocytes, SYBR Green DNA, 72 h; series mostly up to 28.7 µM
Results filed as inconclusive are left out. The source made the active and inactive calls. Calls follow the shape of the dose curve; as a rule, active = well fitted inhibition curve with a large enough effect; inconclusive = small, poorly fitted or top-dose-only effect; inactive = flat fitted curve, though single readings scatter.
Respond with a class label; see Y for active, N for inactive

How did this test come out for "CC[N+](C)(CC)CCOC(=O)C1c2ccccc2Oc2ccccc21" ?
N

Try the molecule "O=C(O)CNC(=O)c1ccccc1I"
N

Next molecule: "NS(=O)(=O)c1ccc(NC(=O)CCC(=O)O)cc1"
N

Now consider O=C(c1ccccc1)C(O)c1ccccc1 (configuration not stated) .
N

Input "CCCCC1(COC(=O)CCC(=O)O)C(=O)N(c2ccccc2)N(c2ccccc2)C1=O"
N

----------
Assay: qHTS of pediatric cancer cell lines to identify multiple opportunities for drug repurposing: Primary screen for Rh30 cells (AID 1347107); further: on the % scale 0 is the no-effect control and ±100 the full control effect; nearly all actives have a fitted effect of over 75% in size
Details: Rh30 rhabdomyosarcoma viability, CellTiter-Glo luminescence, 48 h; series mostly up to 46 µM
Results filed as inconclusive are left out. Activity calls are given as the source filed them. The call rests on the fitted dose curve; in most records, active means well fitted cell-killing curve with a large enough effect; inconclusive means small, poorly fitted or top-dose-only effect; inactive means no such curve, though single readings can be large or run the other way.
observation type: activity change, negative = cytotoxic

Use these answered entries as a reference point.
- C=CCSCC1Nc2cc(Cl)c(S(N)(=O)=O)cc2S(=O)(=O)N1 (stereo not drawn): inactive
- O=C(O)CNC(=O)c1ccccc1I: inactive
- Cc1cccc(Nc2ccccc2C(=O)O)c1C: inactive
- O=C(NCC(O)CO)c1c(I)c(C(=O)NCC(O)CO)c(I)c(N(CCO)C(=O)CO)c1I (stereo not drawn): inactive
- C[C@@H]1CCC[C@H](C)N1: inactive
- CCOc1ccccc1O[C@H](c1ccccc1)[C@H]1CNCCO1: inactive
- NC(=O)CCCCC1CCSS1 (stereo not drawn): inactive
- O=C(/C=C/c1ccccc1)OCc1ccccc1: inactive
- NS(=O)(=O)c1cc(C2(O)NC(=O)c3ccccc32)ccc1Cl (stereo not drawn): inactive
- OCCN1C[C@H](O)[C@@H](O)[C@H](O)[C@H]1CO: inactive

Request the reported activity change, negative = cytotoxic associated with "CN(C(=O)c1c(O)c2ccccc2n(C)c1=O)c1ccccc1"
inactive

Also "CCCCCC(N)=O" ?
inactive

Another: C=CCOc1ccccc1OCC(O)CNC(C)C (stereo not drawn)
inactive
